Where do the numbers come from? From paper PMC12248229.

Assay type: in vivo, Sprague-Dawley (SD) rats
Settings: Sprague-Dawley, rat, plasma, po, 100 mg/kg, MRT0–∞, rats, sorafenib 100 mg/kg after henagliflozin 1 mg/kg for 7 consecutive days, n = 6
Measurement Type: MRT inf (h)

[[record]]
smiles_repr = "CNC(=O)c1cc(Oc2ccc(NC(=O)Nc3ccc(Cl)c(C(F)(F)F)c3)cc2)ccn1"
val = 66


---

Assay: in vivo
Assay type: in vivo, Sprague-Dawley (SD) rats
Conditions: Sprague-Dawley, rat, in vivo, po, 1 mg/kg, AUC0–t, rats, henagliflozin 1 mg/kg after sorafenib 100 mg/kg for 7 consecutive days, n = 6
Measurement Type: AUC(0-t)

[[record]]
molecule = "CCOc1ccc(Cc2cc([C@@]34OC[C@@](CO)(O3)[C@@H](O)[C@H](O)[C@H]4O)ccc2Cl)cc1F [Henagliflozin]"
val = "3450 ng·h/mL"


---

Format: in vivo, Sprague-Dawley (SD) rats
Conditions: Sprague-Dawley, rat, plasma, po, 100 mg/kg, Cmax, rats, sorafenib 100 mg/kg after henagliflozin 1 mg/kg for 7 consecutive days, n = 6
Measurement Type: Cmax (ng/mL)

[[record]]
compound = "CNC(=O)c1cc(Oc2ccc(NC(=O)Nc3ccc(Cl)c(C(F)(F)F)c3)cc2)ccn1 [Sorafenib]"
measurement_type = "Cmax"
unit_text = "ng/mL"
val = 1230


---

Assay type: in vivo, Sprague-Dawley (SD) rats
Details: Sprague-Dawley, rat, plasma, po, 100 mg/kg, MRT0–t, rats, sorafenib 100 mg/kg after henagliflozin 1 mg/kg for 7 consecutive days, n = 6
Measurement Type: MRT last (h)

[[record]]
smiles_repr = "CNC(=O)c1cc(Oc2ccc(NC(=O)Nc3ccc(Cl)c(C(F)(F)F)c3)cc2)ccn1"
measurement_type = "MRT last"
val = 51


---

Test: in vivo
Assay type: in vivo, Sprague-Dawley (SD) rats
Details: Sprague-Dawley, rat, in vivo, po, 1 mg/kg, MRT0–t, rats, henagliflozin 1 mg/kg after sorafenib 100 mg/kg for 7 consecutive days, n = 6
Measurement Type: MRT last (h)

[[record]]
smiles_repr = "CCOc1ccc(Cc2cc([C@@]34OC[C@@](CO)(O3)[C@@H](O)[C@H](O)[C@H]4O)ccc2Cl)cc1F"
unit_text = "h"
val = 9.36


---

Assay type: in vivo, Sprague-Dawley (SD) rats
Conditions: Sprague-Dawley, rat, plasma, po, 100 mg/kg, t1/2, rats, sorafenib 100 mg/kg after henagliflozin 1 mg/kg for 7 consecutive days, n = 6
Measurement Type: half-life (h)

[[record]]
smiles_repr = "CNC(=O)c1cc(Oc2ccc(NC(=O)Nc3ccc(Cl)c(C(F)(F)F)c3)cc2)ccn1"
measurement_type = "half-life"
val = 28.6


---

Assay: in vivo
Assay type: in vivo, Sprague-Dawley (SD) rats
Conditions: Sprague-Dawley, rat, in vivo, po, 1 mg/kg, Cmax, rats, henagliflozin 1 mg/kg oral, alone, n = 6
Measurement Type: Cmax (ng/mL)

[[record]]
compound = "CCOc1ccc(Cc2cc([C@@]34OC[C@@](CO)(O3)[C@@H](O)[C@H](O)[C@H]4O)ccc2Cl)cc1F [Henagliflozin]"
unit_text = "ng/mL"
val = 197


---

Type: in vivo, Sprague-Dawley (SD) rats
Details: Sprague-Dawley, rat, plasma, po, 100 mg/kg, Tmax, rats, sorafenib 100 mg/kg after henagliflozin 1 mg/kg for 7 consecutive days, n = 6
Measurement Type: Tmax (h)

[[record]]
compound = "CNC(=O)c1cc(Oc2ccc(NC(=O)Nc3ccc(Cl)c(C(F)(F)F)c3)cc2)ccn1 [Sorafenib]"
measurement_type = "Tmax"
unit_text = "h"
val = 5.67

